% Blocking: recorded values
System Tested: T1, human CCR8 (human, UniProt P51685 1-355)
T1 construct: Native CCR8 on human PBMC (CCR8+ CD3+ or CCR8+ CD4+ lymphocytes); also called chemokine (C-C motif) receptor 8
T1 sequence (P51685 whole entry): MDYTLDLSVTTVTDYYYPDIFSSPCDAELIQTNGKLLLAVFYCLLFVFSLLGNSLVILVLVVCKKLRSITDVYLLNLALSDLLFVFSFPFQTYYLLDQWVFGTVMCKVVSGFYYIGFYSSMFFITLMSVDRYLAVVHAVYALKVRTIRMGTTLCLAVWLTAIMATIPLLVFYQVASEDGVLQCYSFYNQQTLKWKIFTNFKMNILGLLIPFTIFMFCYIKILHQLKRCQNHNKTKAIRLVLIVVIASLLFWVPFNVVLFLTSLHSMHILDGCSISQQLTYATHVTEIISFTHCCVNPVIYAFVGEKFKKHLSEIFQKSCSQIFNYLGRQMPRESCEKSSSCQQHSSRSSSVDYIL
Assay Overview: flow blocking, PBMC CCR8+CD4+; competitor PE-AB1
Method: For blocking studies, 100 μL of the cell suspension were incubated with 10 μg purified isotype control, AB1, AB2, AB3, AB4, AB5, AB8, AB9, AB10, AB11, AB12, AB13, AB14, AB15, and Commercial ABI antibodies, or isotype control, as blocking agents. […]
Write down the numeric answer in % and omit the unit.

Query string: Specify reported % Blocking for the binder shown: AB8 (antibody, V domains shown, Hybridoma monoclonal; also called antibody 8; clone 8) VH: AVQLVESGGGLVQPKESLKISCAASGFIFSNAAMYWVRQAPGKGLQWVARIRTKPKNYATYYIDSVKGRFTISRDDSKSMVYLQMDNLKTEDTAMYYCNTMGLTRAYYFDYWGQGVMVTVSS VL: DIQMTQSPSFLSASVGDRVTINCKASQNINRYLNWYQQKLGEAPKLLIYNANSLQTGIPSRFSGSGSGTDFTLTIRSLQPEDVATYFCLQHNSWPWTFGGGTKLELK
Result string: -41.9

Query string: Provide measured % Blocking value, entry: AB3 (antibody, V domains shown, Hybridoma monoclonal; also called antibody 3; clone 3) VH: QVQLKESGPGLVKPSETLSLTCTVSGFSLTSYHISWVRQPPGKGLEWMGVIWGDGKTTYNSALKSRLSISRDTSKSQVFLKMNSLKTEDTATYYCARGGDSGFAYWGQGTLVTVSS VL: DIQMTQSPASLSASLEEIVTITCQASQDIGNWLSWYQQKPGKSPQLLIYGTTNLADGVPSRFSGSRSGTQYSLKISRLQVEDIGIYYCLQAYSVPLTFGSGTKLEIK
Result string: 97.4

Query string: Report % Blocking, nothing else, for this binder: AB14 (antibody, V domains shown, Hybridoma monoclonal; Same VH/VL entries as AB15; also called antibody 14; clone 14) VH: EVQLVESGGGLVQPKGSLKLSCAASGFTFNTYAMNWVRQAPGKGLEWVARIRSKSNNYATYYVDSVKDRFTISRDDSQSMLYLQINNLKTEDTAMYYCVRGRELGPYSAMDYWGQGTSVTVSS VL: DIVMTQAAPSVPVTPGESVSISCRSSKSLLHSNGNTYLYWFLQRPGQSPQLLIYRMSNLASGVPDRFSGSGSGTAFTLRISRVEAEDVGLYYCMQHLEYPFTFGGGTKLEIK
Result string: -25.2

meta.source: patent US20240360228A1
